Values compiled from patent US20250368745A1.

tested_on: T1, human IL-18BP (human, UniProt O95998 31-194)
T1 construct: also called hIL-18BP; Mature Human Isoform A
T1 sequence: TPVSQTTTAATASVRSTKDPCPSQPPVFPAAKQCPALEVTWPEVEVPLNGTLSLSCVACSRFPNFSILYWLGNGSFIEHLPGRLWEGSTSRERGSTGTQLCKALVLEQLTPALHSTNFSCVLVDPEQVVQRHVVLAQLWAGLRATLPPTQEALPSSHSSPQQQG
measurement_protocol: BLI, apparent KD, one conc.
Labelling field: enter met if recorded Kd is less than 0.4 nM. Enter not met if it equals or exceeds that cut-off.

binder	assigned_label
SA301a light chain variant S30F (antibody, V domains shown) VH: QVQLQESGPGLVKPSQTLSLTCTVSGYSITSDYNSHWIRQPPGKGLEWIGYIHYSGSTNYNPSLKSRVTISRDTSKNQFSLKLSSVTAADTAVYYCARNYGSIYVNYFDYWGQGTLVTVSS VL: EIVLTQSPATLSLSPGERATLSCSASSSVFYMYWYQQKPGQAPRPLIYRTSNLASGIPARFSGSGSGTDFTLTISSLEPEDFAVYYCQQYHSYPTFGGGTKVEIK	met
SA301a light chain variant V29R (antibody, V domains shown) VH: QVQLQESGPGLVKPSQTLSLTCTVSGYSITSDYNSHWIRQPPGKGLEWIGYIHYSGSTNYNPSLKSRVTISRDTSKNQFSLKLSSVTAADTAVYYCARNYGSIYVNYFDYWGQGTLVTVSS VL: EIVLTQSPATLSLSPGERATLSCSASSSRSYMYWYQQKPGQAPRPLIYRTSNLASGIPARFSGSGSGTDFTLTISSLEPEDFAVYYCQQYHSYPTFGGGTKVEIK	met
SA301a light chain variant S28K (antibody, V domains shown) VH: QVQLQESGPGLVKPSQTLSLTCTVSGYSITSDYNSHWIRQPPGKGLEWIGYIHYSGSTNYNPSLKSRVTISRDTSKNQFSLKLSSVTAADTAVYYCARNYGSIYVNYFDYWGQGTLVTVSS VL: EIVLTQSPATLSLSPGERATLSCSASSKVSYMYWYQQKPGQAPRPLIYRTSNLASGIPARFSGSGSGTDFTLTISSLEPEDFAVYYCQQYHSYPTFGGGTKVEIK	not met
SA301a light chain variant S30D (antibody, V domains shown) VH: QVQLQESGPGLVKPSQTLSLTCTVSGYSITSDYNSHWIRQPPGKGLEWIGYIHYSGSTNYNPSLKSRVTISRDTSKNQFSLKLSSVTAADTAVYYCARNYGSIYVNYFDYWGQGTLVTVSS VL: EIVLTQSPATLSLSPGERATLSCSASSSVDYMYWYQQKPGQAPRPLIYRTSNLASGIPARFSGSGSGTDFTLTISSLEPEDFAVYYCQQYHSYPTFGGGTKVEIK	met
SA301a light chain variant S27Y (antibody, V domains shown) VH: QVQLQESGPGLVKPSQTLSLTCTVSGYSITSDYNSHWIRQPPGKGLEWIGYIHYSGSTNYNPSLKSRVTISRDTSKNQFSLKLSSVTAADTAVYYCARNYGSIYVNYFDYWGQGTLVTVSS VL: EIVLTQSPATLSLSPGERATLSCSASYSVSYMYWYQQKPGQAPRPLIYRTSNLASGIPARFSGSGSGTDFTLTISSLEPEDFAVYYCQQYHSYPTFGGGTKVEIK	met
SA301a light chain variant V29D (antibody, V domains shown) VH: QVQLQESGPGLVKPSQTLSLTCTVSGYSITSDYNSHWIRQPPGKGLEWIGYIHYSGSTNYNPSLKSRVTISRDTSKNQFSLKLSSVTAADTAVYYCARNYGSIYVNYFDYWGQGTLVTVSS VL: EIVLTQSPATLSLSPGERATLSCSASSSDSYMYWYQQKPGQAPRPLIYRTSNLASGIPARFSGSGSGTDFTLTISSLEPEDFAVYYCQQYHSYPTFGGGTKVEIK	not met
SA301a light chain variant V29N (antibody, V domains shown) VH: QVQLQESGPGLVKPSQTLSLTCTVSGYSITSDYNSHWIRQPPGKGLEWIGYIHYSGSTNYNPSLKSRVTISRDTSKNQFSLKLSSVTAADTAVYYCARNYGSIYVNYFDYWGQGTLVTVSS VL: EIVLTQSPATLSLSPGERATLSCSASSSNSYMYWYQQKPGQAPRPLIYRTSNLASGIPARFSGSGSGTDFTLTISSLEPEDFAVYYCQQYHSYPTFGGGTKVEIK	not met
SA301a light chain variant S27R (antibody, V domains shown) VH: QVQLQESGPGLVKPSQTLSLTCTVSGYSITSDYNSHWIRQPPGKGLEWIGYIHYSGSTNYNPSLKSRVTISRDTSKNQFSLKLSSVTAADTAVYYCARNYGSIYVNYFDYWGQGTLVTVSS VL: EIVLTQSPATLSLSPGERATLSCSASRSVSYMYWYQQKPGQAPRPLIYRTSNLASGIPARFSGSGSGTDFTLTISSLEPEDFAVYYCQQYHSYPTFGGGTKVEIK	not met
SA301a light chain variant S27H (antibody, V domains shown) VH: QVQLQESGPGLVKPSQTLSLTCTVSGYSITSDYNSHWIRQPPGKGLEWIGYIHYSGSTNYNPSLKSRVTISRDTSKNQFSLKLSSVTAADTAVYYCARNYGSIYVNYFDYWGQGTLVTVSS VL: EIVLTQSPATLSLSPGERATLSCSASHSVSYMYWYQQKPGQAPRPLIYRTSNLASGIPARFSGSGSGTDFTLTISSLEPEDFAVYYCQQYHSYPTFGGGTKVEIK	not met
SA301a light chain variant S28Q (antibody, V domains shown) VH: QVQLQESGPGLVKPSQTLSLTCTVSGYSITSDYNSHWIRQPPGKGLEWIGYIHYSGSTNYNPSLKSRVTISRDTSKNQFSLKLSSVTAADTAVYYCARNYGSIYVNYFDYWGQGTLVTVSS VL: EIVLTQSPATLSLSPGERATLSCSASSQVSYMYWYQQKPGQAPRPLIYRTSNLASGIPARFSGSGSGTDFTLTISSLEPEDFAVYYCQQYHSYPTFGGGTKVEIK	not met
